Please respond with reported Efficacy (%) for every item in the list.
target: human FXR (NR1H4) (Homo sapiens (Human)); test: Human FXR (NR1H4) Assay (Gal4 promoter driven luciferase reporter, Indigo Bioscience kit IB00601); assay type: cell-based; conditions: efficacy normalized to CDCA set as 100%
Sequence (Q96RI1 whole entry, the tested form may be a part): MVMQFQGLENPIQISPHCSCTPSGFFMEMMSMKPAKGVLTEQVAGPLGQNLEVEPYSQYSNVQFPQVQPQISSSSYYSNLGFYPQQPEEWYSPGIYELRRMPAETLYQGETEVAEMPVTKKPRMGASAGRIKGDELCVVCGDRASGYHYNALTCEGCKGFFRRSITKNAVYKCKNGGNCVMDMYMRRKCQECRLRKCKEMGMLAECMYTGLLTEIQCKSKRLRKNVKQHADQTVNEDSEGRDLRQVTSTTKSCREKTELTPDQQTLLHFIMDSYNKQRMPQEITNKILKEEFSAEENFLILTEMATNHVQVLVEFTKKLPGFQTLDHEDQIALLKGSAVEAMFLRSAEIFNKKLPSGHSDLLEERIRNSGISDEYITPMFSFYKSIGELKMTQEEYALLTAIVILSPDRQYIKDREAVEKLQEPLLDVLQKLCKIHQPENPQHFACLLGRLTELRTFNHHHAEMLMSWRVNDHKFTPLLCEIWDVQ
The response must be a number in % with no trailing unit.

Query: Form field: reported Efficacy (%) of `CC[C@H]1[C@@H](O)[C@@H]2[C@H](CC[C@]3(C)[C@@H]([C@H](C)CCNC(=O)NS(=O)(=O)C(C)(C)C)CC[C@@H]23)[C@@]2(C)CC[C@@H](O)C[C@@H]12`
Result: 323

Query: Form field: reported Efficacy (%) of `CCCCS(=O)(=O)NC(=O)NCC[C@@H](C)[C@H]1CC[C@H]2[C@@H]3[C@H](O)[C@H](CC)[C@@H]4C[C@H](O)CC[C@]4(C)[C@H]3CC[C@]12C`
Result: 407

Query: Form field: reported Efficacy (%) of `CC[C@H]1[C@@H](O)[C@@H]2[C@H](CC[C@]3(C)[C@@H]([C@H](C)CCNC(=O)NS(=O)(=O)N4[C@H](C)CCC[C@@H]4C)CC[C@@H]23)[C@@]2(C)CC[C@@H](O)C[C@@H]12`
Result: 387

Query: Form field: reported Efficacy (%) of `CC[C@H]1[C@@H](O)[C@@H]2[C@H](CC[C@]3(C)[C@@H]([C@H](C)CCNC(=O)NS(=O)(=O)c4ccc(C)cc4)CC[C@@H]23)[C@@]2(C)CC[C@@H](O)C[C@@H]12`
Result: 443

Query: Form field: reported Efficacy (%) of `CC[C@H]1[C@@H](O)[C@@H]2[C@H](CC[C@]3(C)[C@@H]([C@H](C)CCNC(=O)NS(=O)(=O)c4cccc(-c5nc(C)cs5)c4)CC[C@@H]23)[C@@]2(C)CC[C@@H](O)C[C@@H]12`
Result: 295

Query: Form field: reported Efficacy (%) of `CC[C@H]1[C@@H](O)[C@@H]2[C@H](CC[C@]3(C)[C@@H]([C@H](C)CNC(=O)NS(=O)(=O)c4ccc(-c5ccccc5)s4)CC[C@@H]23)[C@@]2(C)CC[C@@H](O)C[C@@H]12`
Result: 322

Query: Form field: reported Efficacy (%) of `CC[C@H]1[C@@H](O)[C@@H]2[C@H](CC[C@]3(C)[C@@H]([C@H](C)CCNC(=O)NS(=O)(=O)c4ccc(F)cc4)CC[C@@H]23)[C@@]2(C)CC[C@@H](O)C[C@@H]12`
Result: 361

Query: Form field: reported Efficacy (%) of `CC[C@H]1[C@@H](O)[C@@H]2[C@H](CC[C@]3(C)[C@@H]([C@H](C)CCNC(=O)NS(=O)(=O)C4CCCCC4)CC[C@@H]23)[C@@]2(C)CC[C@@H](O)C[C@@H]12`
Result: 477

Query: Form field: reported Efficacy (%) of CC[C@H]1[C@@H](O)[C@@H]2[C@H](CC[C@]3(C)[C@@H]([C@H](C)CCNC(=O)NS(=O)(=O)N4CC5CC5C4)CC[C@@H]23)[C@@]2(C)CC[C@@H](O)C[C@@H]12 (some centres unmarked)
Result: 458

Query: Form field: reported Efficacy (%) of `CC[C@H]1[C@@H](O)[C@@H]2[C@H](CC[C@]3(C)[C@@H]([C@H](C)CCCCNS(=O)(=O)c4ccccc4)CC[C@@H]23)[C@@]2(C)CC[C@@H](O)C[C@@H]12`
Result: 105

Query: Form field: reported Efficacy (%) of `CC[C@H]1[C@@H](O)[C@@H]2[C@H](CC[C@]3(C)[C@@H]([C@H](C)CCNC(=O)NS(=O)(=O)N4CCCC4)CC[C@@H]23)[C@@]2(C)CC[C@@H](O)C[C@@H]12`
Result: 420

Query: Form field: reported Efficacy (%) of `CC[C@H]1[C@@H](O)[C@@H]2[C@H](CC[C@]3(C)[C@@H]([C@H](C)CCNC(=O)NS(=O)(=O)C(F)(F)F)CC[C@@H]23)[C@@]2(C)CC[C@@H](O)C[C@@H]12`
Result: 298

Query: Form field: reported Efficacy (%) of `CC[C@H]1[C@@H](O)[C@@H]2[C@H](CC[C@]3(C)[C@@H]([C@H](C)CNC(=O)NS(=O)(=O)c4cccc(OC(F)(F)F)c4)CC[C@@H]23)[C@@]2(C)CC[C@@H](O)C[C@@H]12`
Result: 322

Query: Form field: reported Efficacy (%) of `CC[C@H]1[C@@H](O)[C@@H]2[C@H](CC[C@]3(C)[C@@H]([C@H](C)CCNC(=O)NS(=O)(=O)c4ccc(-c5csc(C)n5)cc4)CC[C@@H]23)[C@@]2(C)CC[C@@H](O)C[C@@H]12`
Result: 419

Query: Form field: reported Efficacy (%) of `CC[C@H]1[C@@H](O)[C@@H]2[C@H](CC[C@]3(C)[C@@H]([C@H](C)CCNC(=O)NS(=O)(=O)N4CCC(C)(C)CC4)CC[C@@H]23)[C@@]2(C)CC[C@@H](O)C[C@@H]12`
Result: 498

Query: Form field: reported Efficacy (%) of `CC[C@H]1[C@@H](O)[C@@H]2[C@H](CC[C@]3(C)[C@@H]([C@H](C)CNC(=O)NS(=O)(=O)c4ccc(N5CCCCC5)cc4)CC[C@@H]23)[C@@]2(C)CC[C@@H](O)C[C@@H]12`
Result: 267

Query: Form field: reported Efficacy (%) of `CC[C@H]1[C@@H](O)[C@@H]2[C@H](CC[C@]3(C)[C@@H]([C@H](C)CNC(=O)NS(=O)(=O)c4cccc(C(C)(C)C)c4)CC[C@@H]23)[C@@]2(C)CC[C@@H](O)C[C@@H]12`
Result: 291
